assay: Pharmacokinetic parameter in Male Wistar rats at 3 mg/kg intravenous administration.; assay type: ADME, organism-based; set-up: dose 3 mg/kg, route intravenous; conditions: rat, in vivo
PARAMETER MEASURED: half-life (h)
Answer in h, number only, no unit symbol.

Query :: Report half-life for `CCO[C@@H](Cc1ccc(OCCN2c3ccccc3Oc3ccccc32)cc1)C(=O)O`
Result :: 4.69

* * *

test: Pharmacokinetic parameter in Male Wistar rats at 10 mg/kg oral administration.; assay type: ADME, organism-based; parameters: dose 10 mg/kg, route oral; details: rat, in vivo
PARAMETER MEASURED: AUC (ng·h/mL)
Enter your answer as a number in ng·h/mL; do not include the unit.

Query :: # return recorded AUC for entry `CCO[C@@H](Cc1ccc(OCCN2c3ccccc3Oc3ccccc32)cc1)C(=O)O`
Result :: 71400

Source of measurements: ChEMBL document CHEMBL1134556
